Molecular target: UniProt:P31652
Assay: Serotonin transporter binding (5-HTT)
Settings: 5-HTT IC50 (nm), Table 2
pIC50: −log10 of the molar value.
Please mark T if the recorded pIC50 is equal to or greater than 5, and F if it falls below.

Some entries whose results are on file:
COC(=O)C1CN(C)CCC1c1ccc2ccccc2c1 (racemic) [Compound 75]: T
CCc1ccc(C2CCN(C)CC2C(=O)OC)cc1 (single isomer, unassigned; (-)) [Compound 81]: F
CN1CCC(c2ccc(Cl)cc2)C(C(=O)Oc2ccccc2)C1 (single isomer, unassigned; (+)) [Compound 59]: F
COC(=O)C1CN(C)CCC1c1cccc2ccccc12 (racemic) [Compound 73]: T
COC(=O)[C@@H]1CN(C)CC[C@@H]1c1ccc2ccccc2c1 (racemic) [Compound 74]: T

Query: Quick check: does COC(=O)C1CN(C)CCC1c1ccc(Br)cc1 (single isomer, unassigned; (-)) [Compound 63] have pIC50 greater than or equal to 5?
Response: T

Query: Is reported pIC50 greater than or equal to 5 here: COC(=O)C1CN(C)CCC1c1ccc(Br)cc1 (single isomer, unassigned; (+)) [Compound 69]
Response: T

Query: Evaluate COC(=O)[C@H]1CN(C)CC[C@@H]1c1ccc(Cl)cc1 [Compound 11] : pIC50 at minimum 5?
Response: T

Query: Please indicate if the recorded pIC50 for C=Cc1ccc(C2CCN(C)CC2C(=O)OC)cc1 (single isomer, unassigned; (+)) [Compound 65] meets or exceeds 5.
Response: F

----------
Biological target: serotonin transporter (Rattus norvegicus)
Sequence (P31652 whole entry): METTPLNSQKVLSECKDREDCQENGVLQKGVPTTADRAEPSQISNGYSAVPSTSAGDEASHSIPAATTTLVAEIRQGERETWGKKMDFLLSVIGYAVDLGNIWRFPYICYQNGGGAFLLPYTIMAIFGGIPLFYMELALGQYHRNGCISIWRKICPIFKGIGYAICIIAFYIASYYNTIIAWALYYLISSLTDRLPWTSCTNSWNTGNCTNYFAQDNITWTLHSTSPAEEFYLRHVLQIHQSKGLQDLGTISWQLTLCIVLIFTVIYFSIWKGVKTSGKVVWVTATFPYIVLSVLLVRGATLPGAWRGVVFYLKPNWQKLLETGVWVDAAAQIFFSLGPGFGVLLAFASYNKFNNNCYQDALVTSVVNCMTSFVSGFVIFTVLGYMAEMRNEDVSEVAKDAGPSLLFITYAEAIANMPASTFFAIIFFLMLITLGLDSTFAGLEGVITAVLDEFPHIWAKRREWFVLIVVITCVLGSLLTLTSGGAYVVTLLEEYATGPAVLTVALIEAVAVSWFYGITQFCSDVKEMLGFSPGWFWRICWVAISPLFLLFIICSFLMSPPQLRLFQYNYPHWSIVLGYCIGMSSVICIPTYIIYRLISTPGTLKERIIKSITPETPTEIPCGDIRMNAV
Assay: Serotonin transporter binding (5-HTT)
Measure name: IC50 (µM)
Your answer should be a plain number; it is taken to be in µM.

Example entries begin here.
CN1CC[C@H](c2ccc(Cl)cc2)[C@@H](CCCO)C1: 2.81
CN1CCC(c2ccc(Cl)cc2)C(c2nc(-c3ccccc3)no2)C1 (single isomer, unassigned; (+)): 7.4

Let us examine a further case.
Query: Quick check: IC50 of COC(=O)C1CN(CCCc2ccccc2)CCC1c1ccc(Cl)cc1 (single isomer, unassigned; (-)) ?
Response: 73.2

----------
Measured IC50 of individual entries
Target: dopamine transporter (Rattus norvegicus, UniProt P23977)
Construct: from tissue; P2 synaptosomes for uptake
Sequence (P23977 whole entry): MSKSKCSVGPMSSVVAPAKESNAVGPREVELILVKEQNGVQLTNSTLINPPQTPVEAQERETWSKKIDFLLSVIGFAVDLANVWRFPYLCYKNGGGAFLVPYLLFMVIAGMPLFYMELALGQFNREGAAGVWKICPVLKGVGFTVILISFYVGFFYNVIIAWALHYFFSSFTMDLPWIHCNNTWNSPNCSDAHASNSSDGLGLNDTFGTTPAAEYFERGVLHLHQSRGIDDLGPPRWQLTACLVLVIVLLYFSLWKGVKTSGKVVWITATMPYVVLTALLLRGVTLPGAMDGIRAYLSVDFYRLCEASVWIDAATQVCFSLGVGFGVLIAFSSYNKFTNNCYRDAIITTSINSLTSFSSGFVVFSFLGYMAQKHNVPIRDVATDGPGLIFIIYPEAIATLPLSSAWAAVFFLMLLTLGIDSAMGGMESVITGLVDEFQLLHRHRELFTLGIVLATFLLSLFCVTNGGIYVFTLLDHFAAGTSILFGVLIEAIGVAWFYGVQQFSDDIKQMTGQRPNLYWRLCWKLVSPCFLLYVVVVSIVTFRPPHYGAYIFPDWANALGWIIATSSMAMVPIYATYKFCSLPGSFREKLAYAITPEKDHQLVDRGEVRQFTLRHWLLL
Experiment: Inhibition of high-affinity [3H]dopamine uptake into rat striatal nerve endings (synaptosomes)
Type: biochemical
Conditions: rat striatal synaptosomes; Table 1; read-out: IC50 (nM) [3H]dopamine uptake
Experimental: A. [^3H]Dopamine Uptake Studies The effect of candidate compounds in antagonizing dopamine high-affinity uptake was determined using a method previously employed. For [^3H]DA uptake, dissected rat striata were homogenized with a Teflon-glass pestle in ice-cold 0.32 M sucrose and centrifuged for 10 min at 1000×g. […] Radioactivity retained on the filters was determined by liquid scintillation spectrometry. […] It is identical to that calculated by subtracting the mean of identical tubes incubated at 0° C.
Unit nM implied. Number only.

Reference set, count: 3
CN1CC[C@H](c2ccc(Cl)cc2)[C@H](CO)C1 [Compound 5]: 49
CCCC1CN(C)CCC1c1ccc(Cl)cc1 (single isomer, unassigned; (+)) [Compound 15]: 23.2
COC(=O)C1CN(C)CCC1c1ccc(Cl)cc1 (single isomer, unassigned; (+)) [Compound 4]: 5090

Let us examine a further case.
Query: Field request: IC50 | item: CN1CCC(c2ccc(Cl)cc2)C(CO)C1 (single isomer, unassigned; (+)) [Compound 13]
Response: 683
